Values were extracted from ChEMBL document CHEMBL2440058.

Target: Androgen receptor (Homo sapiens) (UniProt P10275)
Experiment: Inhibition of androgen receptor in human LNCAP cells assessed as decrease in PSA mRNA expression at 5 uM by RT-PCR analysis relative to control
Assay type: cell-based
Active and inactive are the calls of the source. The rule behind the calls is not given here.
measured attribute: inhibition

> print(dat)
                                    molecule  measured.attribute  reading
 1  N#Cc1ccc(C(=O)O[C@H]2C(=O)C=CN(C(=O)/C=C/c3ccccc3)[C@@H]2c2ccccc2)cc1 (racemic)          inhibition   Active
 2  O=C1C=CN[C@H](c2ccccc2)[C@H]1O (racemic)          inhibition      90%
 3  O=C(O[C@H]1C(=O)C=CN(C(=O)Oc2ccccc2)[C@@H]1c1cccc(-c2ccccc2)c1)c1ccc(F)cc1C(F)(F)F (racemic)          inhibition   Active
 4  O=C1C=CN(C(=O)c2ccccc2)[C@H](c2ccccc2)[C@H]1O (racemic)          inhibition      90%
 5  COc1ccc(C(=O)O[C@H]2C(=O)C=CN(C(=O)/C=C/c3ccccc3)[C@@H]2c2ccccc2)cc1 (racemic)          inhibition   Active
 6  CC(C)(C)[Si](C)(C)O[C@H]1C(=O)C=CN[C@@H]1c1ccc2c(c1)OCO2 (racemic)          inhibition      90%
 7  CC(C)(C)[Si](C)(C)O[C@H]1C(=O)C=CN(C(=O)Oc2ccccc2)[C@@H]1c1ccc2c(c1)OCO2 (racemic)          inhibition      90%
 8  CC(C)(C)[Si](C)(C)O[C@H]1C(=O)C=CN(C(=O)Oc2ccccc2)[C@@H]1c1ccccc1 (racemic)          inhibition      90%
 9  O=C(O[C@H]1C(=O)C=CN(C(=O)Oc2ccccc2)[C@@H]1c1ccccc1)c1ccc(F)cc1C(F)(F)F (racemic)          inhibition   Active
10  CC(C)(C)[Si](C)(C)O[C@H]1C(=O)C=CN(C(=O)Cc2ccccc2)[C@@H]1c1ccc2c(c1)OCO2 (racemic)          inhibition      90%
11  O=C(O[C@H]1C(=O)C=CN(C(=O)/C=C/c2ccccc2)[C@@H]1c1ccccc1)C1CC1 (racemic)          inhibition   Active
12  O=C(O[C@H]1C(=O)C=CN(C(=O)/C=C/c2ccccc2)[C@@H]1c1ccccc1)c1ccc(F)cc1C(F)(F)F (racemic)          inhibition   Active
13  O=C(O[C@H]1C(=O)C=CN(C(=O)/C=C/c2ccccc2)[C@@H]1c1ccccc1)c1ccccc1C(F)(F)F (racemic)          inhibition   Active
14  Cc1csc([C@@H]2[C@@H](OC(=O)N(C)c3ccccc3)C(=O)C=CN2C(=O)c2ccc(C(F)(F)F)nc2)c1 (racemic)          inhibition      90%
15  Cc1csc([C@@H]2[C@@H](OC(=O)c3ccc(F)cc3C(F)(F)F)C(=O)C=CN2C(=O)Oc2ccccc2)c1 (racemic)          inhibition   Active

----------
Target: UniProt:P10275
Assay: Inhibition of androgen receptor in human LNCAP cells assessed as decrease in TMPRSS2 mRNA expression at 5 uM by RT-PCR analysis relative to control
Type: cell-based
Activity calls are given as the source filed them. The rule behind the calls is not given here.
measured attribute: inhibition

> print(dat)
                                    molecule  reading
 1  O=C1C=CN(C(=O)c2ccccc2)[C@H](c2ccccc2)[C@H]1O (racemic)      90%
 2  Cc1csc([C@@H]2[C@@H](OC(=O)N(C)c3ccccc3)C(=O)C=CN2C(=O)c2ccc(C(F)(F)F)nc2)c1 (racemic)      90%
 3  CC(C)(C)[Si](C)(C)O[C@H]1C(=O)C=CN(C(=O)C2CC2)[C@@H]1c1ccc2c(c1)OCO2 (racemic)      90%
 4  O=C(O[C@H]1C(=O)C=CN(C(=O)/C=C/c2ccccc2)[C@@H]1c1ccccc1)c1ccc(F)cc1C(F)(F)F (racemic)   Active
 5  CC(C)(C)[Si](C)(C)O[C@H]1C(=O)C=CN[C@@H]1c1ccc2c(c1)OCO2 (racemic)      90%
 6  O=C(/C=C/c1cccc(C(F)(F)F)c1)O[C@H]1C(=O)C=CN(C(=O)/C=C/c2ccccc2)[C@@H]1c1ccccc1 (racemic)   Active
 7  Cc1csc([C@@H]2[C@@H](OC(=O)N(C)c3ccccc3)C(=O)C=CN2C(=O)C2CC2)c1 (racemic)      90%
 8  O=C(O[C@H]1C(=O)C=CN(C(=O)/C=C/c2ccccc2)[C@@H]1c1ccccc1)c1ccccc1C(F)(F)F (racemic)   Active
 9  O=C1C=CN(C(=O)/C=C/c2ccccc2)[C@H](c2ccccc2)[C@H]1O (racemic)   Active
10  Cc1csc([C@@H]2[C@@H](OC(=O)N(C)c3ccccc3)C(=O)C=CN2C(=O)Oc2ccccc2)c1 (racemic)      90%
11  O=C(O[C@H]1C(=O)C=CN(C(=O)/C=C/c2ccccc2)[C@@H]1c1ccccc1)c1ccc(Cl)cc1 (racemic)   Active
12  O=C(O[C@H]1C(=O)C=CN(C(=O)c2ccccc2)[C@@H]1c1ccccc1)c1ccc(F)cc1C(F)(F)F (racemic)      90%
13  O=C1C=CN(C(=O)Oc2ccccc2)[C@H](c2cccc(-c3ccccc3)c2)[C@H]1O (racemic)      90%
14  CC(C)(C)[Si](C)(C)O[C@H]1C(=O)C=CN(C(=O)c2ccc(C(F)(F)F)nc2)[C@@H]1c1ccc2c(c1)OCO2 (racemic)      90%
15  CC(C)(C)[Si](C)(C)O[C@H]1C(=O)C=CN(C(=O)Oc2ccccc2)[C@@H]1c1ccccc1 (racemic)      90%
16  N#Cc1cccc(C(=O)O[C@H]2C(=O)C=CN(C(=O)/C=C/c3ccccc3)[C@@H]2c2ccccc2)c1 (racemic)   Active
17  CC(C)(C)[Si](C)(C)O[C@H]1C(=O)C=CN(C(=O)Cc2ccccc2)[C@@H]1c1ccc2c(c1)OCO2 (racemic)      90%
18  Cc1csc([C@@H]2[C@@H](OC(=O)c3ccc(F)cc3C(F)(F)F)C(=O)C=CN2C(=O)Oc2ccccc2)c1 (racemic)   Active
19  O=C1C=CN(C(=O)Oc2ccccc2)[C@H](c2ccc(-c3ccccc3)cc2)C1 (racemic)      90%
20  CC(C)=C[C@@H]1[C@@H](OC(=O)c2ccc(F)cc2C(F)(F)F)C(=O)C=CN1C(=O)Oc1ccccc1 (racemic)   Active
21  O=C1C=CN(C(=O)Oc2ccccc2)[C@H](c2ccccc2)C1 (racemic)      90%
22  Cc1csc([C@H]2NC=CC(=O)[C@@H]2OC(=O)N(C)c2ccccc2)c1 (racemic)      90%
23  O=C(Cc1ccccc1)O[C@H]1C(=O)C=CN(C(=O)/C=C/c2ccccc2)[C@@H]1c1ccccc1 (racemic)   Active
24  COc1ccc(C(=O)O[C@H]2C(=O)C=CN(C(=O)/C=C/c3ccccc3)[C@@H]2c2ccccc2)cc1 (racemic)   Active
25  O=C(O[C@H]1C(=O)C=CN(C(=O)/C=C/c2ccccc2)[C@@H]1c1ccccc1)C1CC1 (racemic)   Active
26  O=C1C=CN(C(=O)Oc2ccccc2)[C@H](c2ccc3c(c2)OCO3)[C@H]1O (racemic)      90%
27  CC(C)(C)[Si](C)(C)O[C@H]1C(=O)C=CN(C(=O)Oc2ccccc2)[C@@H]1c1ccc2c(c1)OCO2 (racemic)      90%
28  O=C1C=CN[C@H](c2ccccc2)[C@H]1O (racemic)      90%
29  C[C@@H]1[C@@H](OC(=O)c2ccc(F)cc2C(F)(F)F)C(=O)C=CN1C(=O)Oc1ccccc1 (racemic)   Active
30  CC(C)[C@@H]1[C@@H](OC(=O)c2ccc(F)cc2C(F)(F)F)C(=O)C=CN1C(=O)Oc1ccccc1 (racemic)   Active
31  O=C(O[C@H]1C(=O)C=CN(C(=O)Oc2ccccc2)[C@@H]1c1ccccc1)c1ccc(F)cc1C(F)(F)F (racemic)   Active

----------
Target: Androgen receptor (Homo sapiens) (UniProt P10275)
Sequence (whole entry): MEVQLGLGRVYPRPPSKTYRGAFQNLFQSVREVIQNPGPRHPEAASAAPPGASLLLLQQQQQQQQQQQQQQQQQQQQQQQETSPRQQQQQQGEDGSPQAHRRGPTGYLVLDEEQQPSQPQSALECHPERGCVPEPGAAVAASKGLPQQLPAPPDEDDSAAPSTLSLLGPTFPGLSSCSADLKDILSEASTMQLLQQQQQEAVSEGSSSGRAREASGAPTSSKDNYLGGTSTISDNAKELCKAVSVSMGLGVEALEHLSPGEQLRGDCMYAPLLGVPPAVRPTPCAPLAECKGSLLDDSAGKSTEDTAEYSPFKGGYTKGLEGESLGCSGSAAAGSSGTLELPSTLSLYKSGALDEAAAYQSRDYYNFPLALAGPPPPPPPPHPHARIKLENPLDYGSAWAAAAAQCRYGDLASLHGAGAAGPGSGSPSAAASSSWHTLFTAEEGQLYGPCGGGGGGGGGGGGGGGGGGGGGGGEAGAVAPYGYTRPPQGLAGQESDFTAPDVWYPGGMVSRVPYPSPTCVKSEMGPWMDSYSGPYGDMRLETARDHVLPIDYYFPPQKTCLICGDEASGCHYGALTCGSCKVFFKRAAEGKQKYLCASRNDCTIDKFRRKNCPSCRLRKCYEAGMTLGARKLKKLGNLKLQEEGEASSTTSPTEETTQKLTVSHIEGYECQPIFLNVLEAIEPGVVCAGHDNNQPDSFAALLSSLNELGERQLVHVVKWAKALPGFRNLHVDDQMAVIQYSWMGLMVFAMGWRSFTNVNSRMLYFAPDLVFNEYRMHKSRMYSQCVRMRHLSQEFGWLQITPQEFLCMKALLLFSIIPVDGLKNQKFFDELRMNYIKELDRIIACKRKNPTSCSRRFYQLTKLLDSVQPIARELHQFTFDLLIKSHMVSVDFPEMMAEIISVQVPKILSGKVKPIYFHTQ
Assay: Inhibition of androgen receptor in human LNCAP cells assessed as decrease in PSA mRNA expression at 5 uM by RT-PCR analysis relative to control
Format: cell-based
Calls of active or inactive are those of the source. No cut-off for these calls is given here.
measured attribute: inhibition

> print(dat)
                                   compound                               target.desc  reading
1  O=C1C=CN(C(=O)Oc2ccccc2)[C@H](c2ccccc2)C1 (racemic)  Androgen receptor (Homo sapiens) (UniProt P10275)      90%
2  O=C1C=CN(C(=O)Oc2ccccc2)[C@H](c2ccc(-c3ccccc3)cc2)C1 (racemic)  Androgen receptor (Homo sapiens) (UniProt P10275)      90%
3  O=C(O[C@H]1C(=O)C=CN(C(=O)/C=C/c2ccccc2)[C@@H]1c1ccccc1)c1ccc(Cl)cc1 (racemic)  Androgen receptor (Homo sapiens) (UniProt P10275)   Active
4  O=C(O[C@H]1C(=O)C=CN(C(=O)Oc2ccccc2)[C@@H]1c1ccc2c(c1)OCO2)c1ccc(F)cc1C(F)(F)F (racemic)  Androgen receptor (Homo sapiens) (UniProt P10275)   Active
5  Cc1csc([C@@H]2[C@@H](OC(=O)N(C)c3ccccc3)C(=O)C=CN2C(=O)C2CC2)c1 (racemic)  Androgen receptor (Homo sapiens) (UniProt P10275)      90%
6  Cc1csc([C@@H]2[C@@H](O)C(=O)C=CN2C(=O)Oc2ccccc2)c1 (racemic)  Androgen receptor (Homo sapiens) (UniProt P10275)      90%
